Cited source: PubChem BioAssay (NCI)

# System: EKVX NSCLC
# test_details: NCI-60 one-dose screen, 48 h (100 = growth as untreated, 0 = no growth, -100 = all killed)
# cond: 10 µM unless noted
About 83,000 compounds went through this panel and 20% of them were active in at least one assay; those are over-represented in the sample as a whole.
Overview of reported growth across a group of molecules:
Write the value in % as a bare number.

Example molecules with recorded growth:
>  <molecule>
CC1=C(C(=O)OCc2ccccc2)C(c2ccc3c(c2)OCO3)n2c(nc3ccccc32)N1 (configuration not stated)

>  <growth (%)>
64.4

$$$$
>  <molecule>
CCOC(=O)c1c(N)sc2cc(O)ccc12

>  <growth (%)>
106

$$$$
>  <molecule>
CN1/C(=C/C=C/c2n(Cc3ccc4ccccc4c3)c(Cl)c(Cl)[n+]2Cc2ccc3ccccc3c2)Oc2ccccc21

>  <growth (%)>
-91.7

$$$$
>  <molecule>
CS(=O)(=O)c1cccc(Nc2ncc3cc(-c4ccccc4Cl)ccc3n2)c1

>  <growth (%)>
23.9

$$$$
>  <molecule>
C/C(=N\NC(=O)c1ccc(C(C)(C)C)cc1)c1ccc(O)cc1O

>  <growth (%)>
22

$$$$

Provide value of growth for this record tested with EKVX NSCLC: `COc1cc(C(=O)/C=C/c2c(-c3cccs3)nc3sc(C)cn23)cc(OC)c1OC`
13.4

Provide value of growth for this record tested with EKVX NSCLC: C#Cc1c(I)n(C2OC(CO[Si](C)(C)C(C)(C)C)C3OC(C)(C)OC32)c(=O)[nH]c1=O (configuration not stated)
96.7

Provide value of growth for this record tested with EKVX NSCLC: `CC(C)(C)n1cc(-c2ccnc(NCCNS(=O)(=O)c3ccc(Br)cc3)c2)c(-c2cccc(O)c2)n1`
43.4
